Experiment: gradient 5% acetonitrile 3 min, to 50% in 2 min, to 85% in 15 min, held 3 min, 100 µL/min
Details: column: Zorbax Extend-C18 2.1 x 50 mm; eluents: water / acetonitrile, 0.1% formic acid
property label: RP-LC retention time (s)

1. Cc1ccc(Nc2nc(NCCO)c3cnn(C)c3n2)cc1C
2. O=c1ccc(N2CCCN(S(=O)(=O)c3ccccc3F)CC2)nn1-c1ccc(Cl)cc1
Which shows the larger RP-LC retention time value: 1 or 2 ? Indicate which entry you chose by stating its label.
2

---

Assay: gradient 5% acetonitrile 3 min, to 50% in 2 min, to 85% in 15 min, held 3 min, 100 µL/min
Conditions: column: Zorbax Extend-C18 2.1 x 50 mm; eluents: water / acetonitrile, 0.1% formic acid
property label: RP-LC retention time (s)

>>> measured_value("CC1CCN(S(=O)(=O)c2ccc(C(=O)Nc3nc4c(s3)Cc3ccccc3-4)cc2)CC1")
1230
>>> measured_value("Cc1ccc(C)c(CNC(=O)C2CCc3nc(N4CCCC4)ncc3C2)c1 (centres undefined)")
691
>>> measured_value("O=C(Cn1c(=O)c2cccn2c2ccc(F)cc21)Nc1ccccc1F")
858
>>> measured_value("CCCn1ccc2sc(C)c(C(=O)N3CCN(c4ccccc4F)CC3)c2c1=O")
916

a. CC(C)Oc1ccccc1CN1CC[C@@H]2CN(S(C)(=O)=O)[C@@H]2C1
b. CCOc1ccccc1-c1noc(Cn2cnc3c(cnn3-c3ccccc3)c2=O)n1
Could you point out whether the larger RP-LC retention time belongs to a or to b ? Return value: the label identifying the chosen record.
b
